# ASSAY EXPLANATION: Apparent permeability across apical to basolateral side in human Caco2 cells at 10 uM after 60 mins by LC-MS/MS analysis
# RECORDED CONDITIONS: Caco-2
MEASURED QUANTITY: Papp A→B at 1 h, 10 µM (×10⁻⁶ cm/s)

> print(dat)
                                   compound  reported.value
1  CCNC(=O)c1cc2c(N3CCCC3c3ccccn3)ccnc2[nH]1 (configuration not stated)              15
2  COC(C)(C)C1CCCN1c1ccnc2[nH]ncc12 (configuration not stated)              75
3  c1cncc(C2CCCN2c2ccnc3[nH]ncc23)c1 (configuration not stated)              44
4          c1ccc2c(c1)OCCN2c1ccnc2[nH]ccc12              39
5  O=C(NC1COC1)c1cc2c(N3CCCC3c3ccccn3)ccnc2[nH]1 (configuration not stated)               7
6  O=C(NC1CC1)c1cc2c(-c3cccc(Cl)c3)ccnc2[nH]1              18
7  c1ccc(C2CCCN2c2ccnc3[nH]ncc23)cc1 (configuration not stated)              74
8  c1ccc(C2CCCN2c2ccnc3[nH]ccc23)cc1 (configuration not stated)              69

P. CCNC(=O)c1cc2c(N3CCCC3c3cccnc3)ccnc2[nH]1 (configuration not stated)
Q. c1ccc(C2COCCN2c2ccnc3[nH]ncc23)cc1 (configuration not stated)
R. CCNC(=O)c1cc2c(N3CCCC3c3ccccc3)ccnc2[nH]1 (configuration not stated)
S. O=C(NC1CC1)c1cc2c(N3CCCC3c3ccccn3)ccnc2[nH]1 (configuration not stated)
Problem: Put the entries in order of Papp A→B at 1 h, 10 µM, starting with the largest number. In your reply, arrange the labels in the requested order.
Solution: Q, R, S, P
(Q: 88 ×10⁻⁶ cm/s, R: 41 ×10⁻⁶ cm/s, S: 13 ×10⁻⁶ cm/s, P: 4 ×10⁻⁶ cm/s)

====

# ASSAY EXPLANATION: Intrinsic clearance in mouse liver microsomes at […] preincubated for 5 mins followed by NADPH addition measured by LC-MS/MS analysis
# Format: ADME, microsome
# RECORDED CONDITIONS: liver microsomes, read-out: CLH
MEASURED QUANTITY: microsomal CLint at 1000 µM (µL/min/mg)

The cases that follow already have their microsomal CLint at 1000 µM on record.
> print(dat)
                                   molecule  reported.value
1  CCNC(=O)c1cc2c(N3CCCC3c3cccnc3)ccnc2[nH]1 (stereo unspecified)              49
2  CCNC(=O)c1cc2c(N3CCOC[C@@H]3C)ccnc2[nH]1              36
3  CCNC(=O)c1cc2c(N3CCOCC3c3ccccc3)ccnc2[nH]1 (stereo unspecified)             156
4  O=C(NC1CC1)c1cc2c(-c3cccc(Cl)c3)ccnc2[nH]1             115

a. CCNC(=O)c1cc2c(N3CCCC3c3ccccc3)ccnc2[nH]1 (stereo unspecified)
b. c1ccc(C2CCCN2c2ccnc3[nH]ccc23)cc1 (stereo unspecified)
c. CCNC(=O)c1cc2c(N3CCCC3C(C)(C)OC)ccnc2[nH]1 (stereo unspecified)
d. O=C(NC1COC1)c1cc2c(N3CCCC3c3cccnc3)ccnc2[nH]1 (stereo unspecified)
Problem: Order the entries by their reported microsomal CLint at 1000 µM, beginning at the minimum. API: response body holds the labels in the requested order.
Solution: d, c, a, b

P. CCNC(=O)c1cc2c(N3CCOCC3C3CC3)ccnc2[nH]1 (stereo unspecified)
Q. O=C(NC1COC1)c1cc2c(N3CCCC3c3ccccn3)ccnc2[nH]1 (stereo unspecified)
R. c1ccc(C2COCCN2c2ccnc3[nH]ncc23)cc1 (stereo unspecified)
S. COC(C)(C)C1CCCN1c1ccnc2[nH]ncc12 (stereo unspecified)
Problem: hey, can you rank those molecules up there by microsomal CLint at 1000 µM? biggest number first please Please list the labels in the order you were asked to rank them.
Solution: R, S, P, Q

P. O=C(NC1CC1)c1cc2c(N3CCCC3c3ccccn3)ccnc2[nH]1 (stereo unspecified)
Q. c1ccc(C2CCCN2c2ccnc3[nH]ncc23)cc1 (stereo unspecified)
Problem: Endpoint returns the identifier whose microsomal CLint at 1000 µM is numerically larger, either P or Q . Could you answer with the label of the item you picked?
Solution: Q
